Hey, just so you know, these numbers are from PubChem BioAssay AID328.

# Test system: BDF1 mice, P388 leukemia ip, median survival T/C
# Test method notes: NCI In Vivo Anticancer Drug Screen. Data for tumor model P388 Leukemia (intraperitoneal) in B6D2F1 (BDF1) mice
# Settings: endpoint: median survival time; dose: 12.5 mg/kg/injection; schedule: Q04DX003 (ip); vehicle: saline with Tween-80
Inconclusive results and toxic doses are left out. The calls were made as follows: active = survival T/C of 150% or more; inactive = T/C below 125% in these data.
Output constraint: value belongs to 1 (yes) for active, 0 (no) for inactive

Completed entries (count: 5):
[
  {
    "Compound": "CS(=O)(=O)OCCN(CCOS(C)(=O)=O)c1ccc(C=O)cc1",
    "Qualitative label": "1 (yes)"
  },
  {
    "Compound": "COC1=CCC23C(=O)C=CC(=O)C2(C1)C(=O)c1ccccc1C3=O (stereo unspecified)",
    "Qualitative label": "0 (no)"
  },
  {
    "Compound": "Clc1nc(SC2=NCCN2)c2[nH]cnc2n1",
    "Qualitative label": "0 (no)"
  },
  {
    "Compound": "CC(C)CC(CC(C)C)NCC(C)OC(=O)c1ccc(N)cc1 (stereo unspecified)",
    "Qualitative label": "0 (no)"
  },
  {
    "Compound": "C=CC[N+](CC=C)(CC=C)CC[N+](CC=C)(CC=C)CC=C",
    "Qualitative label": "0 (no)"
  }
]

Below: the item to evaluate.
Query: Which outcome was entered for the compound Cc1cccc(C(=O)C=C(C(F)(F)F)C(F)(F)F)c1 in this test?
Reply: 0 (no)

###

# Tested on: BDF1 mice, P388 leukemia ip, median survival T/C
# Test method notes: NCI In Vivo Anticancer Drug Screen. Data for tumor model P388 Leukemia (intraperitoneal) in B6D2F1 (BDF1) mice
# Settings: endpoint: median survival time; dose: 200.0 mg/kg/injection; schedule: Q01DX001 (ip); vehicle: saline with Tween-80; higher = longer survival
Toxic doses and inconclusive results are not listed.
Observed property: T/C

[
  {
    "Molecule": "Nc1nc(N)c(Nc2ccc(Cl)cc2)c(Cl)n1",
    "T/C": "89 % of control"
  },
  {
    "Molecule": "OC1CCC2(CC1)Cc1ccccc1C2O (stereo unspecified)",
    "T/C": "119 % of control"
  },
  {
    "Molecule": "COC1=C(C2(O)C(=O)N(C)c3ccccc32)C(=O)C(OC)=C(C2(O)C(=O)N(C)c3ccccc32)C1=O (stereo unspecified)",
    "T/C": "89 % of control"
  }
]

Please look at the items below and tell me T/C for each one, in order.
1. Cc1ccc(C(=S)NC(=O)Nc2ccccc2)cc1
2. COC(C)c1cnccc1C(C)c1cc2ccccc2[nH]1 (stereo unspecified)
3. CS(=O)(=O)NC(=O)NC(=S)c1ccccc1
4. O=C(Nc1ccccc1)C1(Br)CC2(C1)CC(Br)(C(=O)Nc1ccccc1)C2 (stereo unspecified)
5. COc1ccccc1-n1c(=O)c(N=Nc2ccccc2)c(O)n(-c2ccccc2C)c1=S
6. O=C(CCC(O)c1ccccc1)NCc1ccccc1 (stereo unspecified)

Reply:
["90 % of control", "108 % of control", "100 % of control", "99 % of control", "95 % of control", "100 % of control"]

Please look at the items below and tell me T/C for each one, in order.
1. COC(=O)Cc1[nH]ccc1C(=O)OC
2. CC1CCCC(c2ccccc2)C1 (stereo unspecified)

Reply:
["109 % of control", "109 % of control"]

###

# Test system: BDF1 mice, P388 leukemia ip, median survival T/C
# Test method notes: NCI In Vivo Anticancer Drug Screen. Data for tumor model P388 Leukemia (intraperitoneal) in B6D2F1 (BDF1) mice
# Settings: endpoint: median survival time; dose: 200.0 mg/kg/injection; schedule: Q01DX009 (ip); vehicle: saline with Tween-80; higher = longer survival
Inconclusive results and toxic doses are left out.
Would you mind telling me the reported T/C of each entry?

[
  {
    "Compound": "C=C1CCCCC1O (stereo not drawn)",
    "T/C": "101 % of control"
  }
]

Please look at the items below and tell me T/C for each one, in order.
1. CCOc1c(Br)cc(Br)cc1C=O
2. CN(C)c1ccc(/C=C/c2ccnc3ccc(Cl)cc23)cc1
3. COC(=O)CC(CC(=O)c1ccccc1)c1ccccc1 (stereo not drawn)
4. COc1cc(/C=N\NC(=O)OC(C)(C)C)cc(OC)c1OC

Reply:
["113 % of control", "100 % of control", "87 % of control", "86 % of control"]

###

# Tested on: BDF1 mice, P388 leukemia ip, median survival T/C
# Test method notes: NCI In Vivo Anticancer Drug Screen. Data for tumor model P388 Leukemia (intraperitoneal) in B6D2F1 (BDF1) mice
# Settings: endpoint: median survival time; dose: 400.0 mg/kg/injection; schedule: Q04DX003 (ip); vehicle: water; higher = longer survival
Inconclusive results and toxic doses are left out.
Would you mind telling me the reported T/C of each entry?

Please look at the items below and tell me T/C for each one, in order.
1. COC(=O)/C=C/c1c[nH]c2nccnc12
2. COc1cc2c(cc1OC)C(OC)N(C)c1c-2ccc2cc(OC)c(OC)cc12 (centres undefined)
3. CCOC(=O)C(=O)NCc1cnccn1
4. CC(C)CC(CC(C)C)NCC(C)OC(=O)c1ccc([N+](=O)[O-])cc1 (centres undefined)
5. COC1=C(O)C(C(O)CO)OC1=O (centres undefined)
6. CCOC(=O)CNCc1ccc(C)cc1
7. COc1cccc2c(=O)cc(C)[nH]c12
8. [Cl][Pt+2]([Cl])([Cl])[Cl].c1ccc(C2CC[N-]CC2)cc1.c1ccc(C2CC[N-]CC2)cc1

Reply:
1: 102 % of control; 2: 102 % of control; 3: 100 % of control; 4: 88 % of control; 5: 105 % of control; 6: 100 % of control; 7: 98 % of control; 8: 89 % of control

Query: State the recorded T/C for this entry: O=C(c1c(F)c(F)c(F)c(F)c1F)N1CC1
Reply: 100 % of control

###

Would you mind telling me the reported T/C of each entry?
# Test system: BDF1 mice, P388 leukemia ip, median survival T/C
# Test method notes: NCI In Vivo Anticancer Drug Screen. Data for tumor model P388 Leukemia (intraperitoneal) in B6D2F1 (BDF1) mice
# Settings: endpoint: median survival time; dose: 50.0 mg/kg/injection; schedule: Q01DX001 (ip); vehicle: saline; higher = longer survival
Toxic doses and inconclusive results are not listed.

[
  {
    "Molecule": "CCCCN(CCCC)CCOC(=O)c1ccc([N+](=O)[O-])cc1",
    "Observed property": "T/C",
    "Result value": "100 % of control"
  },
  {
    "Molecule": "CCOC(=O)N(C)C1CCC1NC (centres undefined)",
    "Observed property": "T/C",
    "Result value": "100 % of control"
  },
  {
    "Molecule": "COc1cc2c(c3oc(=O)ccc13)C(=O)CC(C)(C)O2",
    "Observed property": "T/C",
    "Result value": "108 % of control"
  }
]

# evaluate next
Query: State the recorded T/C for this entry: COc1cc([C@@H]2c3cc4c(c(OC)c3C[C@H]3COC(=O)[C@@H]32)OCO4)cc(OC)c1OC
Reply: 113 % of control

###

# System: BDF1 mice, P388 leukemia ip, median survival T/C
# Test method notes: NCI In Vivo Anticancer Drug Screen. Data for tumor model P388 Leukemia (intraperitoneal) in B6D2F1 (BDF1) mice
# Settings: endpoint: median survival time; dose: 12.5 mg/kg/injection; schedule: Q04DX003 (ip); vehicle: saline; higher = longer survival
Inconclusive results and toxic doses are left out.
Would you mind telling me the reported T/C of each entry?

The examples below pair each entry with its known result.
[
  {
    "Compound": "CC1(C)N=C(N)N=C(N)N1c1cccc(CN)c1",
    "Study target": "BDF1 mice, P388 leukemia ip, median survival T/C",
    "T/C": "90 % of control"
  },
  {
    "Compound": "CC(=O)CC(C)=O.CC(=O)CC(C)=O.[Fe]",
    "Study target": "BDF1 mice, P388 leukemia ip, median survival T/C",
    "T/C": "113 % of control"
  },
  {
    "Compound": "CC1(Cl)C(=O)NC(=O)C1Cl (stereo not given)",
    "Study target": "BDF1 mice, P388 leukemia ip, median survival T/C",
    "T/C": "100 % of control"
  },
  {
    "Compound": "OCC(I)C(CO)[n+]1ccccc1 (stereo not given)",
    "Study target": "BDF1 mice, P388 leukemia ip, median survival T/C",
    "T/C": "88 % of control"
  }
]

# evaluate next
Query: State the recorded T/C for this entry: CCN(CC)P(=O)(N1CC1C)N1CC1C (stereo not given)
Reply: 116 % of control
